Entries and their inhibition in vivo at 100 mg/kg
Test system: Mus musculus
ASSAY: Analgesic activity in Swiss albino mouse assessed as p-benzoquinone-induced writhing at 100 mg/kg, po administered 60 mins before benzoquinone challenge
Format: functional
PROPERTY: inhibition in vivo at 100 mg/kg (%)

- CC(=O)OC[C@H]1O[C@@H](Sc2nc3sc(C(C)=O)c(C)c3c(=O)n2N)[C@H](OC(C)=O)[C@@H](OC(C)=O)[C@@H]1OC(C)=O: 45.4
- CCOC(=O)c1sc2nc(S[C@@H]3O[C@H](COC(C)=O)[C@@H](OC(C)=O)[C@@H]3OC(C)=O)n(N)c(=O)c2c1C: 53.3
- CC(=O)OC[C@H]1O[C@@H](Sc2nc3sc(C(C)=O)c(C)c3c(=O)n2N)[C@H](OC(C)=O)[C@@H](OC(C)=O)[C@H]1OC(C)=O: 13.8
